Each entry below carries its reported pIC50.
Target: hGYS1 enzyme (recombinant hGYS1/GN1 protein) (Homo sapiens (Human))
Sequence (P13807 whole entry): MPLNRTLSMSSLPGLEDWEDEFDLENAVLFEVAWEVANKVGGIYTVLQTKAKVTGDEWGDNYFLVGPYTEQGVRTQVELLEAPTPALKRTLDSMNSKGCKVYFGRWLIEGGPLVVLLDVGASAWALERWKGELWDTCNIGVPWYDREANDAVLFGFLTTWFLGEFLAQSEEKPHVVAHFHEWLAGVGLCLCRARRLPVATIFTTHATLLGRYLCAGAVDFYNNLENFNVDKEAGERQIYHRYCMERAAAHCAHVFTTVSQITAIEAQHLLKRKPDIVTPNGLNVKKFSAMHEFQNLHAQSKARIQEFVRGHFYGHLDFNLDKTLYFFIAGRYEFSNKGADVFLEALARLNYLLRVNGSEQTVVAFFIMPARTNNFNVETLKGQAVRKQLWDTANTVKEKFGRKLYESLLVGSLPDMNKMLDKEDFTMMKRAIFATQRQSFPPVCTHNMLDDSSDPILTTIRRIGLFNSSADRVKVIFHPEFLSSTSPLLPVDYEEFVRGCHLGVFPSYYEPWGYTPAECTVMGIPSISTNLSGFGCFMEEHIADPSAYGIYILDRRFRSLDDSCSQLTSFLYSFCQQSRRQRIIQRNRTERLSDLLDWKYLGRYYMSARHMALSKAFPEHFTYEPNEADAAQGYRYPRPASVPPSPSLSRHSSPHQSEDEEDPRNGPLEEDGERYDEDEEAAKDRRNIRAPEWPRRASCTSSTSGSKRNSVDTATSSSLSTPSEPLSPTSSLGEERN
Sequence (P46976 whole entry partner): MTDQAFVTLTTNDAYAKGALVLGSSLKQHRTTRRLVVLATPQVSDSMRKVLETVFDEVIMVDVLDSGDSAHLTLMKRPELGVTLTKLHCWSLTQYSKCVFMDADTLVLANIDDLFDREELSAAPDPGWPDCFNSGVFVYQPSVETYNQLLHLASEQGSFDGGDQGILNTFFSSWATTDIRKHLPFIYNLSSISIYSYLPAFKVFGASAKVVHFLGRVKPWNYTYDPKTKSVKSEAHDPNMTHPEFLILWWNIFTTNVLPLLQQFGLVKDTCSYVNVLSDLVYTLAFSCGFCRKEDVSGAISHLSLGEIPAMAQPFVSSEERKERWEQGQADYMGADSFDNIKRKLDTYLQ
Assay: GYS1 coupled enzyme assay (PK/LDH)
Settings: hGYS1/GN1 50 nM, UDP-Glucose 0.8 mM, G6P 1 mM; geometric mean of at least 2 runs
Scale: negative log10 of molar concentration, which is what pIC50 denotes.

[
  {
    "structureString": "Cc1cc([C@@H](NC(=O)[C@@H]2C[C@@H](F)CN2C(=O)Cc2nnc(C(F)F)o2)c2ccccc2)ncc1C(C)C",
    "pIC50": 7.04
  },
  {
    "structureString": "CC(C)c1ccc([C@@H](NC(=O)[C@@H]2C[C@@H](F)CN2C(=O)Cn2nncc2N2CC(F)(F)C2)c2ccccc2)nc1",
    "pIC50": 7.35
  }
]

input: Suppose we examine the compound O=C(N[C@@H](c1ccccc1)c1ccc(C2CC2)c(F)n1)[C@@H]1C[C@@H](F)CN1C(=O)Cc1cnn[nH]1 ; what pIC50 value has been reported?
output: 7.10

input: Suppose we examine the compound CC[C@@H]1CN(C(C)=O)C[C@@H]1C(=O)N1C[C@H](F)C[C@H]1C(=O)N[C@@H](c1ccccc1)c1ccc(C(C)C)cc1 ; what pIC50 value has been reported?
output: 7.51

input: Suppose we examine the compound Cc1ccc2[nH]cc(CC(=O)N3C[C@H](F)C[C@H]3C(=O)N[C@@H](c3ccccc3)c3ccc(C(C)C)cc3)c2c1 ; what pIC50 value has been reported?
output: 7.92

Data provenance is patent US11814367B2.
